Reference source for all entries: paper PMC12040969

- Test system: colon - HCT-116
- assay: Antiproliferative assay (MTT) HCT-116
- assay-setup: HCT-116, 3.125 µM
measured-attribute: Average of Relative viability of cells (%)
Field note: include the unit after the figure.

| compound | result |
| --- | --- |
| COc1ccc(/C=C/C(=O)c2sc(SCC(=O)Nc3nc(-c4ccc(C)cc4)cs3)nc2C)cc1 [Compound 10o] | 66.5% |
| Cc1nc(SCC(=O)Nc2nc(-c3ccc(Cl)cc3)cs2)sc1C(=O)/C=C/c1ccccc1 [Compound 10f] | 90.2% |
| Cc1ccc(-c2csc(NC(=O)CSc3nc(C)c(C(=O)/C=C/c4ccc(F)cc4)s3)n2)cc1 [Compound 10m] | 99.8% |
| Cc1nc(SCC(=O)Nc2nccs2)sc1C(=O)/C=C/c1ccc(F)cc1 [Compound 13c] | 92.6% |
| Cc1nc(SCC(=O)Nc2nccs2)sc1C(=O)/C=C/c1ccc(Cl)cc1 [Compound 13b] | 92.7% |

Give its Average of Relative viability of cells (%) value. Item: Cc1ccc(/C=C/C(=O)c2sc(SCC(=O)Nc3nc(-c4ccccc4)cs3)nc2C)cc1 [Compound 10d]
91.5%

Item Cc1nc(SCC(=O)Nc2nc(-c3ccc(Cl)cc3)cs2)sc1C(=O)/C=C/c1ccc(F)cc1 [Compound 10h] has what recorded Average of Relative viability of cells (%)?
97.6%

I'd like to know its Average of Relative viability of cells (%). The compound in question is Cc1ccc(/C=C/C(=O)c2sc(SCC(=O)Nc3nccs3)nc2C)cc1 [Compound 13d]
69.8%
